# System: Rattus norvegicus
# experiment.description: Cmax in rat at 30 mg/kg, po
# Format: ADME, organism-based
# Design: dose 30 mg/kg, route oral
# condition: in vivo
measurement.type: Cmax (ng/mL)
Give just the numeric value; ng/mL need not be written.

*Q* Annotate the molecule CN1CCN(c2ccccc2C2SC(CC(=O)N3CCC(N4Cc5ccccc5NC4=O)CC3)C(=O)N2CCC(C)(C)C)CC1 (stereo unspecified) with its measured Cmax.
*A* 260

###

Ki reference
# target: Calcitonin gene-related peptide type 1 receptor (Homo sapiens, UniProt O60894+Q16602)
# Sequence (Q16602 whole entry, one chain of several): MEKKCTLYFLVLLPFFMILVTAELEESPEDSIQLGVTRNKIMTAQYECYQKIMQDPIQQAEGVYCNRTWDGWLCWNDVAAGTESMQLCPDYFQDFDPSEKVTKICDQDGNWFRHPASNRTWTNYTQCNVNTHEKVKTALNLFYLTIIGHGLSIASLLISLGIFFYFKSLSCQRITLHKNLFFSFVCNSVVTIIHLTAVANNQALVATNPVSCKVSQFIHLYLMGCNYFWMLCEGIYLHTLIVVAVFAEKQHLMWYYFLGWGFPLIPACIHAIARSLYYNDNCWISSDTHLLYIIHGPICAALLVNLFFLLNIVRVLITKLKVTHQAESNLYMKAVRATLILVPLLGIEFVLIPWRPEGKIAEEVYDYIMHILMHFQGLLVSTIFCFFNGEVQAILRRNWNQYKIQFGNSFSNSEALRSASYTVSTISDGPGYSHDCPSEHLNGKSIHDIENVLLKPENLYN
# experiment.description: Displacement of [125I]CGRP from CGRP receptor in human SK-N-MC cell membranes preincubated for 30 mins followed by radioligand addition measured after 2 hrs by liquid scintillation counting

Previously resolved entries follow.
[[record]]
molecule = "O=C(CC1SC(c2ccccc2)N(c2ccccc2)C1=O)N1CCC(N2Cc3ccccc3NC2=O)CC1 (configuration not stated)"
target = "Calcitonin gene-related peptide type 1 receptor (Homo sapiens, UniProt O60894+Q16602)"
measurement_type = "Ki"
observed = "806 nM"

[[record]]
molecule = "CCCCN1C(=O)C(CC(=O)N2CCC(N3Cc4ccccc4NC3=O)CC2)SC1c1ccccc1 (configuration not stated)"
target = "Calcitonin gene-related peptide type 1 receptor (Homo sapiens, UniProt O60894+Q16602)"
measurement_type = "Ki"
observed = "64 nM"

[[record]]
molecule = "O=C(CC1SC(c2ccccc2)N(CC2CCCO2)C1=O)N1CCC(N2Cc3ccccc3NC2=O)CC1 (configuration not stated)"
target = "Calcitonin gene-related peptide type 1 receptor (Homo sapiens, UniProt O60894+Q16602)"
measurement_type = "Ki"
observed = "68 nM"

[[record]]
molecule = "CN1CCN(c2cccc(F)c2C2SC(CC(=O)N3CCC(N4CCc5ccccc5NC4=O)CC3)C(=O)N2CCC(C)(C)C)CC1 (configuration not stated)"
target = "Calcitonin gene-related peptide type 1 receptor (Homo sapiens, UniProt O60894+Q16602)"
measurement_type = "Ki"
observed = "1 nM"


*Q* Give Ki for the following molecule: CN1C(=O)C(CC(=O)N2CCC(N3Cc4ccccc4NC3=O)CC2)SC1c1ccccc1 (configuration not stated)
*A* 203 nM

*Q* In one line, give reported Ki of the entry O=C(CC1SC(c2ccccc2)N(C2CC2)C1=O)N1CCC(N2Cc3ccccc3NC2=O)CC1 (configuration not stated) .
*A* 865 nM

*Q* State, in one line, measured Ki of CN1CCN(c2cc(F)ccc2C2SC(CC(=O)N3CCC(N4CCc5ccccc5NC4=O)CC3)C(=O)N2CCC(C)(C)C)CC1 (configuration not stated)
*A* 14 nM

*Q* Identify the reported Ki for the following entry. CC(C)(C)CCN1C(=O)C(CC(=O)N2CCC(N3Cc4ccccc4NC3=O)CC2)SC1c1ccccc1F (configuration not stated)
*A* 54 nM

*Q* Please report Ki for the following molecule: CN1CCN(c2c(F)cccc2C2SC(CC(=O)N3CCC(N4CCc5ccccc5NC4=O)CC3)C(=O)N2CCC(C)(C)C)CC1 (configuration not stated)
*A* 0.5 nM

*Q* Recall and state the measured Ki for CCN1CCN(c2c(F)cccc2C2SC(CC(=O)N3CCC(N4CCc5ccccc5NC4=O)CC3)C(=O)N2CCC(C)(C)C)CC1 (configuration not stated) .
*A* 0.07 nM

*Q* Query Ki for CC(C)(C)CCN1C(=O)C(CC(=O)N2CCC(N3Cc4ccccc4NC3=O)CC2)SC1c1ccccc1N1CCNCC1 (configuration not stated)
*A* 2 nM

*Q* For the molecule CCN(CC)CCN1C(=O)C(CC(=O)N2CCC(N3Cc4ccccc4NC3=O)CC2)SC1c1ccccc1 (configuration not stated) , give its reported Ki.
*A* 303 nM

*Q* Give the measured Ki for CC(C)(C)CCN1C(=O)C(CC(=O)N2CCC(N3Cc4ccccc4NC3=O)CC2)SC1c1ccc(F)cc1F (configuration not stated)
*A* 30 nM

*Q* # return recorded Ki for entry CC(C)CCN1C(=O)C(CC(=O)N2CCC(N3Cc4ccccc4NC3=O)CC2)SC1c1ccccc1 (racemic)
*A* 32 nM

*Q* Provide only the value of recorded Ki for CC(C)(C)N1C(=O)C(CC(=O)N2CCC(N3Cc4ccccc4NC3=O)CC2)SC1c1ccccc1 (configuration not stated)
*A* 1880 nM

*Q* Dear colleague, please send me the reported Ki for CC(C)(C)CCN1C(=O)C(CC(=O)N2CCC(N3Cc4ccccc4NC3=O)CC2)SC1c1c(F)cccc1F (configuration not stated) when you can.
*A* 59 nM

*Q* State, in one line, measured Ki of CN1CCN(c2ccc(F)cc2C2SC(CC(=O)N3CCC(N4CCc5ccccc5NC4=O)CC3)C(=O)N2CCC(C)(C)C)CC1 (configuration not stated)
*A* 14 nM

###

# target: Calcitonin gene-related peptide type 1 receptor (Homo sapiens, UniProt O60894+Q16602)
# experiment.description: Displacement of [125I]CGRP from CGRP receptor in human SK-N-MC cell membranes preincubated for 30 mins followed by radioligand addition measured after 2 hrs by liquid scintillation counting
Ki strictly less than 20 nM = fulfilled. Otherwise not fulfilled.

Worked examples, 6 molecules total:
[[record]]
molecule = "CC(C)(C)CCN1C(=O)C(CC(=O)N2CCC(N3Cc4ccccc4NC3=O)CC2)SC1c1ccccc1-c1cccnc1 (stereo not drawn)"
target = "Calcitonin gene-related peptide type 1 receptor (Homo sapiens, UniProt O60894+Q16602)"
assigned_category = "not fulfilled"

[[record]]
molecule = "CC(C)CN1C(=O)C(CC(=O)N2CCC(N3Cc4ccccc4NC3=O)CC2)SC1c1ccccc1 (stereo not drawn)"
target = "Calcitonin gene-related peptide type 1 receptor (Homo sapiens, UniProt O60894+Q16602)"
assigned_category = "not fulfilled"

[[record]]
molecule = "CC(C)N1CCN(c2c(F)cccc2C2SC(CC(=O)N3CCC(N4CCc5ccccc5NC4=O)CC3)C(=O)N2CCC(C)(C)C)CC1 (stereo not drawn)"
target = "Calcitonin gene-related peptide type 1 receptor (Homo sapiens, UniProt O60894+Q16602)"
assigned_category = "fulfilled"

[[record]]
molecule = "O=C(CC1SC(c2ccccc2)N(CC2CC2)C1=O)N1CCC(N2Cc3ccccc3NC2=O)CC1 (stereo not drawn)"
target = "Calcitonin gene-related peptide type 1 receptor (Homo sapiens, UniProt O60894+Q16602)"
assigned_category = "not fulfilled"

[[record]]
molecule = "O=C(CC1SC(c2ccccc2)N(CCc2ccccn2)C1=O)N1CCC(N2Cc3ccccc3NC2=O)CC1 (stereo not drawn)"
target = "Calcitonin gene-related peptide type 1 receptor (Homo sapiens, UniProt O60894+Q16602)"
assigned_category = "not fulfilled"

[[record]]
molecule = "CC(C)N1C(=O)C(CC(=O)N2CCC(N3Cc4ccccc4NC3=O)CC2)SC1c1ccccc1 (stereo not drawn)"
target = "Calcitonin gene-related peptide type 1 receptor (Homo sapiens, UniProt O60894+Q16602)"
assigned_category = "not fulfilled"


*Q* Dear reviewer, please state whether O=C(CC1SC(c2ccccc2)N(C2CCCCC2)C1=O)N1CCC(N2Cc3ccccc3NC2=O)CC1 (stereo not drawn) has Ki strictly beneath 20 nM.
*A* not fulfilled

*Q* Check if Ki falls below 20 nM for CC(C)(C)CCN1C(=O)C(CC(=O)N2CCC(N3CCc4ccccc4NC3=O)CC2)SC1c1ccccc1N1CCNCC1 (stereo not drawn) .
*A* fulfilled

###

Items are presented alongside their recorded Cmax.
# Tested on: Rattus norvegicus
# experiment.description: Cmax in rat at 10 mg/kg, po
# Assay type: ADME, organism-based
# Design: dose 10 mg/kg, route oral
# condition: in vivo
Value expressed in ng/mL; do not type the unit.

As a guide, the following entries are already answered.
[[record]]
molecule = "O=C(N[C@@H]1CC[C@@H](c2cccc(F)c2F)CN(CC(F)(F)F)C1=O)N1CCC(n2c(=O)[nH]c3ncccc32)CC1"
observed = 550

[[record]]
molecule = "CC(C)N1CCN(c2c(F)cccc2C2SC(CC(=O)N3CCC(N4CCc5ccccc5NC4=O)CC3)C(=O)N2CCC(C)(C)C)CC1 (stereo not drawn)"
observed = 120


Shifting focus to the molecule that follows.
*Q* Give the measured Cmax for "CC(C)(C)CCN1C(=O)[C@H](CC(=O)N2CCC(N3CCc4ccccc4NC3=O)CC2)S[C@@H]1c1cccc(F)c1N1CCN(C(C)(C)C)CC1"
*A* 410
